Target: Tyrosine-protein phosphatase non-receptor type 22 (Homo sapiens, UniProt Q9Y2R2)
Sequence (Q9Y2R2 whole entry): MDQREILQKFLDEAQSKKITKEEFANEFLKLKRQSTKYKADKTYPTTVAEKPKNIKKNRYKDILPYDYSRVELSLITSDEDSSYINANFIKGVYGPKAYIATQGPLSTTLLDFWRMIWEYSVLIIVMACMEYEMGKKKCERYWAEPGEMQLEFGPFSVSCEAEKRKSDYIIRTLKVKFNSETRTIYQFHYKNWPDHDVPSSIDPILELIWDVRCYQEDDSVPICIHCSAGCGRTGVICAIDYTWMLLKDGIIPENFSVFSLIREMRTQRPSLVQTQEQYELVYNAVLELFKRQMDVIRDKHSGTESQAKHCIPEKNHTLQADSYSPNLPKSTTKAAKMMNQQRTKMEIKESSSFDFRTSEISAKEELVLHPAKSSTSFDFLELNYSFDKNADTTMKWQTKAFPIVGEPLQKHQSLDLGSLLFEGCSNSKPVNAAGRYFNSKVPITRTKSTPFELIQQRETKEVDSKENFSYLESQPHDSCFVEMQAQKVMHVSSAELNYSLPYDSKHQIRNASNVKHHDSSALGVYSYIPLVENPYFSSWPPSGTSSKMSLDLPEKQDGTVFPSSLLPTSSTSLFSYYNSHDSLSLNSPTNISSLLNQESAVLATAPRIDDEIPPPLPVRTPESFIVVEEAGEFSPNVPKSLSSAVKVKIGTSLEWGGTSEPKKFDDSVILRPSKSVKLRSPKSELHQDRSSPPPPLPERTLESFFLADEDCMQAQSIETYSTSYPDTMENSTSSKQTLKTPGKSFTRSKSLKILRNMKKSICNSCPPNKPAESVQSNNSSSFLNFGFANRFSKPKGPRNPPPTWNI
Compiled IC50 measurements on Tyrosine-protein phosphatase non-receptor type 22 (Homo sapiens, UniProt Q9Y2R2) taken from the literature.

Answered examples (4):
COc1ccc(C(=O)CCc2ccc(C(=O)Nc3ccc(S(=O)(=O)Nc4nccs4)cc3)cc2)cc1 ... > 10 µM
O=C(O)COc1ccc(-c2ccc(/C=C3\SC(=S)N(CC(=O)O)C3=O)o2)cc1C(=O)O ... > 44 µM
CN(c1ccc2oc(C(=O)O)cc2c1)S(=O)(=O)c1ccc(Cl)c([N+](=O)[O-])c1 ... > 20 µM
O=C(Nc1ccc(I)cc1)C(=O)Nc1ccc(NC(=O)C(c2ccccc2)S(=O)(=O)O)cc1 (stereo unspecified) ... > 50 µM

Quick check: IC50 on Tyrosine-protein phosphatase non-receptor type 22 (Homo sapiens, UniProt Q9Y2R2), item `CC(C)CN(c1ccc2oc(C(=O)O)cc2c1)S(=O)(=O)c1ccc(Cl)cc1` ? > 20 µM

Quick check: IC50 on Tyrosine-protein phosphatase non-receptor type 22 (Homo sapiens, UniProt Q9Y2R2), item `O=C(O)c1cc2cc(N(Cc3ccccc3)S(=O)(=O)c3ccc(Cl)cc3)ccc2o1` ? > 20 µM
